System: HCC1954 cells (with PI3Kα H1047R mutation)
Assay: In vitro inhibition of HCC1954 cell proliferation (CellTiter-Lumi)
Type: cell-based
Conditions: Homo sapiens, HCC1954, 144 h, HCC1954 cells, 144 h, CellTiter-Lumi; numeric values; read-out: Inhibitory activity against HCC1954 cells (IC50)
pIC50: −log10 of the molar value.
Measure: pIC50

- Compound: "C=CC(=O)Nc1ccc(N2CC(N3CCN(c4ccc5c(c4)-c4nc(N6C(=O)OC[C@H]6CF)cn4CCO5)CC3)C2)cc1"
  Observed Result: 8.31
- Compound: "C=CC(=O)Nc1ccc(CN2CC3(CCN(c4ccc5c(c4)-c4nc(N6C(=O)OC[C@H]6C(F)F)cn4CCO5)CC3)C2)cc1"
  Observed Result: 6.74
- Compound: "C=CC(=O)Nc1ccc(N2CC(N3CCN(c4ccc5c(c4)-c4nc(N6C(=O)OC[C@H]6C(F)F)cn4CCO5)CC3)C2)cc1OC"
  Observed Result: 8.40
- Compound: "C=CC(=O)Nc1ccc(N2CCC(N3CCN(c4ccc5c(c4)-c4nc(N6C(=O)OC[C@H]6C(F)F)cn4CCO5)CC3)C2)cc1 (stereo partly drawn) [Compound 28]"
  Observed Result: 6.74
- Compound: "N#CC(=CC1CC1)C(=O)Nc1ccc(N2CC(N3CCN(c4ccc5c(c4)-c4nc(N6C(=O)OC[C@H]6C(F)F)cn4CCO5)CC3)C2)cc1"
  Observed Result: 7.38
- Compound: "C=CC(=O)Nc1ccc(N2CC(N3CCN(c4ccc5c(c4)-c4nc(N6C(=O)OC[C@H]6C(F)F)cn4CCO5)CC3)C2)c(C#N)c1"
  Observed Result: 8.44

Origin of measurements: patent US20260193268A1
